log10(Ki) reference
TARGET ENTITY: Human TfR1 protein (R&D Systems, 2474-TR or Acro Biosystems, CD1-H5243) (human, UniProt P02786 89-760)
Sequence (P02786 89-760 limits assumed): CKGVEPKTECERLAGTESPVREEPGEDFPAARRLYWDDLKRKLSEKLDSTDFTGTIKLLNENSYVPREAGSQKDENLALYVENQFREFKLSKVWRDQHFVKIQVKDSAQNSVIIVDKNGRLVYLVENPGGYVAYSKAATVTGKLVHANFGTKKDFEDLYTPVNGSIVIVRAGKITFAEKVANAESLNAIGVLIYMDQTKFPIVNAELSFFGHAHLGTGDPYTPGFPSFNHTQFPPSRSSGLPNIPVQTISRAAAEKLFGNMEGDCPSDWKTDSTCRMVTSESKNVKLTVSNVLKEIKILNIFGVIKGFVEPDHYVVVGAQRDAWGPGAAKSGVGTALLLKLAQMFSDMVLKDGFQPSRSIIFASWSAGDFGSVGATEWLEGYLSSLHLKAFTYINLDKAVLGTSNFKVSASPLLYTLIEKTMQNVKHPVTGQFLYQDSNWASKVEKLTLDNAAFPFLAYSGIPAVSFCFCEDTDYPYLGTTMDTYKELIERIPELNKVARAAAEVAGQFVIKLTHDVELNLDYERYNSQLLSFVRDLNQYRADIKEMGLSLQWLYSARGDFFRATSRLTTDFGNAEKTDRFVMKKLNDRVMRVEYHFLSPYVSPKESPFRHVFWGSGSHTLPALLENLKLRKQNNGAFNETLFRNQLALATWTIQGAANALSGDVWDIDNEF
EXPERIMENT: FP competition, competitor BCY15768
Starred links: 1 amine or outer side, 2 acyl side, 3 side chain; linkers in the order of their positions; H or OH if unused. Positions of bridges follow the written chain, without caps; N, C: chain ends. Non-standard residues stand in square brackets, D forms with d. No end group written: not given here. TATB = O=C(C[*:1])N1CN(C(=O)C[*:2])CN(C(=O)C[*:3])C1; tBuAla = CC(C)(C)C[C@H](N)C(=O)O
Heads up, the numbers here are log10 of Ki in µM units.

CPXDAYLGCXSYC (3 Cys on TATB; N-terminal acetyl (Ac); core as printed CP[HyP]DAYLGC[tBuGly]SYC) [BCY17991]    -2.70
CSPDAHLGCISYC (3 Cys on a scaffold (TATA or TATB assumed by the filing for non-inhibitory peptides; not stated for this one)) [BCY15935]    -0.52
HTSCSPDAHLGCISYCA (linker 4-12-16 via TATB) [BCY17111]    -1.07
ACSPDAYLGC[tBuAla]SYCA (linker 2-10-14 via TATB) [BCY16558]    0.21

Could you now look at the following binder, please?
Measured log10(Ki) of ACSPDAHLGCISYCEHQE (linker 2-10-14 via TATB (inferred)) [BCY17119] : -0.80
